Reference source for all entries: patent US8546405B2

# Test system: replicon 1b-Con1
# test.description: HCV subgenomic replicon luciferase reporter assay, replicon 1b-Con1
# Assay type: cell-based, Hepatitis C virus (HCV) genotype 1b-Con1
# run.conditions: Hepatitis C virus, 72 h; stable subgenomic replicon cell line, luciferase reporter, three days incubation; values given as ranges or bound
Give measured IC50 for each item. Keep answers brief.

Please supply IC50 for each of the following items, keeping them in order.
1. CC(C)c1ccc2c(Nc3cc(C#Cc4ccc(Sc5ccc(OCc6ccccc6)cc5)c(Nc5ncnc6nc(C(C)C)ccc56)c4)ccc3Sc3ccc(OCc4ccccc4)cc3)ncnc2n1 [Example 26]
2. CC(C)c1ccc2c(Nc3cc(C#Cc4ccc(Sc5ccc(N(C)C)cc5)c(Nc5ncnc6nc(C(C)C)ccc56)c4)ccc3Sc3ccc(N(C)C)cc3)ncnc2n1 [Example 16]
3. Cc1ccc2c(Nc3cc(C#Cc4ccc(Sc5ccc(N)cc5)c(Nc5ncnc6nc(C)ccc56)c4)ccc3Sc3ccc(N)cc3)ncnc2n1 [Example 21]
4. CC(C)c1ccc2c(Nc3cc(NC(=O)Nc4ccc(Sc5ccc(N)cc5)c(Nc5ncnc6nc(C(C)C)ccc56)c4)ccc3Sc3ccc(N)cc3)ncnc2n1 [Example 3]
5. CC(C)c1ccc2c(Nc3cc(C#Cc4ccc(Sc5ccc(N)cc5)c(Nc5ncnc6nc(C(C)C)ccc56)c4)ccc3Sc3ccc(N)cc3)ncnc2n1 [Example 8]

A:
0.1 to 10 nM
0.1 to 10 nM
0.1 to 10 nM
10 to 100 nM
< 0.1 nM

Please supply IC50 for each of the following items, keeping them in order.
1. CC(C)c1ccc2c(Nc3cc(C#Cc4ccc(Oc5ccc(CO)cc5)c(Nc5ncnc6nc(C(C)C)ccc56)c4)ccc3Oc3ccc(CO)cc3)ncnc2n1 [Example 23]
2. COc1ccc(Sc2ccc(CN(Cc3ccc(Sc4ccc(OC)cc4)c(Nc4ccnc5nc(C)ccc45)c3)C(C)C)cc2Nc2ccnc3nc(C)ccc23)cc1 [Example 28]
3. CC(C)c1ccc2c(Nc3cc(C(=O)NNC(=O)c4ccc(Sc5ccc(N)cc5)c(Nc5ncnc6nc(C(C)C)ccc56)c4)ccc3Sc3ccc(N)cc3)ncnc2n1 [Example 1]
4. CC(C)c1ccc2c(Nc3cc(C#Cc4ccc(Oc5ccc(O)cc5)c(Nc5ncnc6nc(C(C)C)ccc56)c4)ccc3Oc3ccc(O)cc3)ncnc2n1 [Example 25]
5. CC(C)c1ccc2c(Nc3cc(CN(Cc4ccc(Sc5ccc(N)cc5)c(Nc5ncnc6nc(C(C)C)ccc56)c4)c4ccccc4)ccc3Sc3ccc(N)cc3)ncnc2n1 [Example 9]

A:
["0.1 to 10 nM", "10 to 100 nM", "0.1 to 10 nM", "0.1 to 10 nM", "< 0.1 nM"]
